Numbers sourced from patent US20250296992A1.

Target: T1, human SLITRK6 on cells (human, UniProt Q9H5Y7 27-841)
T1 construct: whole, on cells
Experiment: flow cytometry on SW780 cells
pEC50: −log10 of the molar value.
MEASUREMENT_NAME: pEC50

BINDER	MEASUREMENT_NAME	RECORDED_MEASUREMENT
phA290 (antibody, V domains shown, From phage display, then full-length construction; Only the variable regions are tied to the name) VH: QVQLVQSGAEVKKPGASVKVSCKASGYTFTSYYMHWVRQAPGQGLEWMGIINPSGGSTSYAQKFQGRVTMTRDTSTSTVYMELSSLRSEDTAVYYCARGFTRYFDYWGQGTLVTVSA VL: EIVMTQSPGTLSLSPGERATLSCRASQSVSKYLAWYQQRPGQAPRLLIYDASNRATGIPARFSGSGSGTDFTLTVSSLEPEDFAVYYCQQRYNWPLTFGGGTTVEIK	pEC50	9.57
phA108 (antibody, V domains shown, From phage display, then full-length construction; Only the variable regions are tied to the name) VH: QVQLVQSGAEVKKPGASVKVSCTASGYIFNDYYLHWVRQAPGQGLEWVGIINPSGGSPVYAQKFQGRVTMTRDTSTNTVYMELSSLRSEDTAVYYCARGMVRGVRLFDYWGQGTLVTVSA VL: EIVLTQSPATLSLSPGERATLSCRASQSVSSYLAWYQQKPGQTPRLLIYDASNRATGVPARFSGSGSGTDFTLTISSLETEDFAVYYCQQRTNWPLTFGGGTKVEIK	pEC50	9.57
